tested on: Streptococcus Group 9960
For each of the compounds below, state its MIC.
One number for each entry, in µg/mL.

Here are 8 compounds together with their reported answers.
Compound	Measured Target	MIC / µg/mL
CCC1OC(=O)CC(O)C(C)C(OC2OC(C)C(OC3CC(C)(O)C(O)C(C)O3)C(N(C)C)C2OC(C)=O)C(CC=O)CC(C)C(=O)C=CC(C)=CC1COC(=O)n1ccnc1 (stereo not shown)	Streptococcus Group 9960	1
CCCCCCCC(=O)OCC1C=C(C)C=CC(=O)C(C)CC(CC=O)C(OC2OC(C)C(OC3CC(C)(O)C(O)C(C)O3)C(N(C)C)C2OC(C)=O)C(C)C(O)CC(=O)OC1CC (stereo not shown)	Streptococcus Group 9960	2
CCC1OC(=O)CC(O)C(C)C(OC2OC(C)C(OC3CC(C)(O)C(O)C(C)O3)C(N(C)C)C2OC(C)=O)C(CC=O)CC(C)C(=O)C=CC(C)=CC1COC(=O)Cc1ccc(Cl)cc1 (stereo not shown)	Streptococcus Group 9960	1
CCC(=O)OCC1C=C(C)C=CC(=O)C(C)CC(CC=O)C(OC2OC(C)C(OC3CC(C)(O)C(O)C(C)O3)C(N(C)C)C2OC(C)=O)C(C)C(O)CC(=O)OC1CC (stereo not shown)	Streptococcus Group 9960	1
CCC1OC(=O)CC(O)C(C)C(OC2OC(C)C(OC3CC(C)(O)C(O)C(C)O3)C(N(C)C)C2O)C(CC=O)CC(C)C(=O)C=CC(C)=CC1COC(=O)NCCCO (stereo not shown)	Streptococcus Group 9960	2
CCC(=O)OCC1C=C(C)C=CC(=O)C(C)CC(CC=O)C(OC2OC(C)C(OC3CC(C)(O)C(O)C(C)O3)C(N(C)C)C2O)C(C)C(O)CC(=O)OC1CC (stereo not shown)	Streptococcus Group 9960	1
CCC1OC(=O)CC(O)C(C)C(OC2OC(C)C(OC3CC(C)(O)C(O)C(C)O3)C(N(C)C)C2OC(C)=O)C(CC=O)CC(C)C(=O)C=CC(C)=CC1COC(=O)CCCCc1ccccc1 (stereo not shown)	Streptococcus Group 9960	1
CCC1OC(=O)CC(O)C(C)C(OC2OC(C)C(OC3CC(C)(O)C(O)C(C)O3)C(N(C)C)C2O)C(CC=O)CC(C)C(=O)C=CC(C)=CC1COC(=O)Cc1ccccc1 (stereo not shown)	Streptococcus Group 9960	0.25

Here are 2 compounds. What values of MIC were reported for them?
1. CCC1OC(=O)CC(O)C(C)C(OC2OC(C)C(OC3CC(C)(O)C(O)C(C)O3)C(N(C)C)C2OC(C)=O)C(CC=O)CC(C)C(=O)C=CC(C)=CC1COC(=O)Cc1ccccc1 (stereo not shown)
2. CCC1OC(=O)CC(O)C(C)C(OC2OC(C)C(OC3CC(C)(O)C(O)C(C)O3)C(N(C)C)C2OC(C)=O)C(CC=O)CC(C)C(=O)C=CC(C)=CC1COC(=O)C=Cc1ccccc1 (stereo not shown)

[0.25, 2]
